The reported numbers originate from patent US20260007688A1.

test system: HT22 cells; assay: Ferroptosis assay, erastin-induced cell death, MTT viability; type: cell-based; conditions: Mus musculus, HT-22, 500 nM erastin, 16 hours
Below is a list of entries, each paired with its recorded EC50 value.
The figure you give is taken to be in µM; do not add the unit.

Worked examples follow.
[[record]]
compound = "CCCCCCC(C)(C)c1cc(O)c2c(c1)OC(C)(C)C=C2"
measured_attribute = "EC50"
recorded_value = 2.78

[[record]]
compound = "CCCCCCC(C)(C)c1cc(O)c2c(c1)OC(C)C=C2 (centres unmarked)"
measured_attribute = "EC50"
recorded_value = 3.36


QUERY: Annotate the compound `CCCCCc1cc(O)c2c(c1)OC(C)(C)C=C2` with its measured EC50.
RESULT: 3.78

QUERY: Supply EC50 value. Item: `CCCCCc1cc(O)c2c(c1)OC(C)(C)c1ccc(C)cc1-2`
RESULT: 2.33

QUERY: Input CCCCCc1cc(O)c2c(c1)OC(C)C=C2 (centres unmarked) , output reported EC50.
RESULT: 8.08

* * *

system: HT22 cells; assay: Oxytosis assay, glutamate-induced cell death, MTT viability; type: cell-based; conditions: Mus musculus, HT-22, 5 mM glutamate, 16 hours
Measured attribute: EC50
Value and unit, in that order.

Take a look at these entries with their results.
[[record]]
molecule = "CCCCCc1cc(O)c2c(c1)OC(C)(C)c1ccc(C)cc1-2"
recorded_value = "1890 nM"

[[record]]
molecule = "CCCCCc1cc(O)c2c(c1)OC(C)(C)C=C2"
recorded_value = "2600 nM"

[[record]]
molecule = "CCCCCc1cc(O)c2c(c1)OC(C)C=C2 (centres unmarked)"
recorded_value = "6630 nM"

[[record]]
molecule = "CCCCCCC(C)(C)c1cc(O)c2c(c1)OC(C)C=C2 (centres unmarked)"
recorded_value = "2890 nM"


Then this molecule:
QUERY: State, in one line, measured EC50 of `CCCCCCC(C)(C)c1cc(O)c2c(c1)OC(C)(C)C=C2`
RESULT: 1890 nM

* * *

test system: MC65 cells; assay: Intracellular amyloid toxicity assay; format: cell-based; settings: Homo sapiens, 72 h, APP-C99 induced, day 3, MTT, read-out: Aβ toxicity EC50
Measured attribute: pEC50
Please note pEC50 is a logarithmic value: minus log10 of concentration in mol/L. Answer with that number alone.

Recorded pEC50, per entry:
[[record]]
molecule = "CCCCCc1cc(O)c2c(c1)OC(C)C=C2 (centres unmarked)"
recorded_value = 5.80

[[record]]
molecule = "CCCCCCC(C)(C)c1cc(O)c2c(c1)OC(C)(C)C=C2"
recorded_value = 7.51

[[record]]
molecule = "CCCCCCC(C)(C)c1cc(O)c2c(c1)OC(C)C=C2 (centres unmarked)"
recorded_value = 7.01

[[record]]
molecule = "CCCCCc1cc(O)c2c(c1)OC(C)(C)c1ccc(C)cc1-2"
recorded_value = 7.85


QUERY: For the molecule `CCCCCc1cc(O)c2c(c1)OC(C)(C)C=C2` , give its measured pEC50 value.
RESULT: 6.84

* * *

system: HT22 cells; assay: Ferroptosis assay, RSL3-induced cell death, MTT viability; type: cell-based; conditions: Mus musculus, HT-22, 50 nM RSL3, 16 hours
Below, each entry is listed alongside its reported pEC50.
pEC50 (log units): -log10 of the concentration in mol/L.

Previously resolved entries follow.
[[record]]
molecule = "CCCCCc1cc(O)c2c(c1)OC(C)(C)c1ccc(C)cc1-2 [CBN, Cannabinol]"
experimental_target = "HT22 cells"
recorded_value = 6.16

[[record]]
molecule = "CCCCCc1cc(O)c2c(c1)OC(C)C=C2 (centres unmarked) [CP4, 2-methyl-7-pentyl-2H-chromen-5-ol]"
experimental_target = "HT22 cells"
recorded_value = 6.08

[[record]]
molecule = "CCCCCCC(C)(C)c1cc(O)c2c(c1)OC(C)(C)C=C2 [CP1]"
experimental_target = "HT22 cells"
recorded_value = 6.17

[[record]]
molecule = "CCCCCCC(C)(C)c1cc(O)c2c(c1)OC(C)C=C2 (centres unmarked) [CP2]"
experimental_target = "HT22 cells"
recorded_value = 6.04


# context switch: different molecule, same pEC50
QUERY: Report pEC50 for CCCCCc1cc(O)c2c(c1)OC(C)(C)C=C2 [CP3, 2,2-dimethyl-7-pentyl-2H-chromen-5-ol]
RESULT: 6.07
